List of melting point values.

# example entries with known answers
>>> result("COc1cc2ncnc(Oc3cccc(NC(=S)Nc4ccc(F)cc4)c3)c2cc1OC [Compound 10j]")
"168.5 to 170 °C"
>>> result("COc1cc2ncnc(Oc3cccc(NC(=S)Nc4ccc(Cl)cc4)c3)c2cc1OC [Compound 10i]")
"198.3 to 201 °C"
>>> result("COc1cc2ncnc(Oc3cccc(NC(=S)Nc4cccc(C(F)(F)F)c4)c3)c2cc1OC [Compound 10e]")
"147.5 to 149.6 °C"
>>> result("COc1cc2ncnc(Sc3cccc(NC(=S)Nc4ccc(C)cc4)c3)c2cc1OC [Compound 10v]")
"163.1 to 165 °C"
>>> result("COc1cc2ncnc(Sc3cccc(NC(=S)Nc4ccc(OC(F)(F)F)cc4)c3)c2cc1OC [Compound 10n]")
"138 to 139.3 °C"
>>> result("COc1cc2ncnc(Oc3cccc(NC(=S)Nc4ccc(OC(F)(F)F)cc4)c3)c2cc1OC [Compound 10f]")
"171.5 to 174 °C"
>>> result("COc1cc2ncnc(Oc3cccc(NC(=S)Nc4ccc(F)c(C(F)(F)F)c4)c3)c2cc1OC [Compound 10a]")
"130.5 to 133 °C"

Now for a further molecule.
The reported value for COc1cc2ncnc(Oc3cccc(NC(=S)Nc4ccc(F)c(F)c4)c3)c2cc1OC [Compound 10h] in terms of melting point is 181.3 to 184.1 °C

* * *

The reader will find reported Tumor Weight values listed item by item below.
Test system: B16 melanoma xenograft
Method notes: In vivo antitumor activity, B16 melanoma xenograft model
Reported conditions: 90 mg/kg for 14 days (text: orally; table footnote: i.p.), C57BL/6J mice
Numbers only here, please. The scale is g.

These solved cases illustrate the format of a correct answer.
>>> numeric_value("COc1cc2ncnc(Sc3cccc(NC(=S)Nc4ccc(Br)c(C(F)(F)F)c4)c3)c2cc1OC [Compound 10q]")
0.46
>>> numeric_value("COc1cc2ncnc(Sc3cccc(NC(=S)Nc4ccc(Cl)c(C(F)(F)F)c4)c3)c2cc1OC [Compound 10m]")
1.02
>>> numeric_value("COc1cc2ncnc(Oc3cccc(NC(=S)Nc4ccc(Cl)c(C(F)(F)F)c4)c3)c2cc1OC [Compound 10b]")
0.65

Switching to the query record.
Case CNC(=O)c1cc(Oc2ccc(NC(=O)Nc3ccc(Cl)c(C(F)(F)F)c3)cc2)ccn1 [sorafenib, reference compound] , B16 melanoma xenograft, Tumor Weight recorded as 0.88

* * *

Method notes: Body weight in B16 melanoma xenograft model
Assay type: in vivo
Reported conditions: 90 mg/kg for 14 days, B16 tumor-bearing C57BL/6J mice, end of treatment
Measurement type: Body Weight End (g)
State just the number; it will be interpreted in g.

>>> numeric_value("COc1cc2ncnc(Sc3cccc(NC(=S)Nc4ccc(Cl)c(C(F)(F)F)c4)c3)c2cc1OC [Compound 10m]")
20.9

Reported Body Weight End for COc1cc2ncnc(Sc3cccc(NC(=S)Nc4ccc(Br)c(C(F)(F)F)c4)c3)c2cc1OC [Compound 10q] was 20.2

Record COc1cc2ncnc(Oc3cccc(NC(=S)Nc4ccc(Cl)c(C(F)(F)F)c4)c3)c2cc1OC [Compound 10b] . Reported Body Weight End: 19.5

Short answer for CNC(=O)c1cc(Oc2ccc(NC(=O)Nc3ccc(Cl)c(C(F)(F)F)c3)cc2)ccn1 [sorafenib, reference compound] : Body Weight End was 21.3

* * *

Let's go through some pIC50 measurements on VEGFR-2 (Homo sapiens) together.
Sequence (P35968 20-1356): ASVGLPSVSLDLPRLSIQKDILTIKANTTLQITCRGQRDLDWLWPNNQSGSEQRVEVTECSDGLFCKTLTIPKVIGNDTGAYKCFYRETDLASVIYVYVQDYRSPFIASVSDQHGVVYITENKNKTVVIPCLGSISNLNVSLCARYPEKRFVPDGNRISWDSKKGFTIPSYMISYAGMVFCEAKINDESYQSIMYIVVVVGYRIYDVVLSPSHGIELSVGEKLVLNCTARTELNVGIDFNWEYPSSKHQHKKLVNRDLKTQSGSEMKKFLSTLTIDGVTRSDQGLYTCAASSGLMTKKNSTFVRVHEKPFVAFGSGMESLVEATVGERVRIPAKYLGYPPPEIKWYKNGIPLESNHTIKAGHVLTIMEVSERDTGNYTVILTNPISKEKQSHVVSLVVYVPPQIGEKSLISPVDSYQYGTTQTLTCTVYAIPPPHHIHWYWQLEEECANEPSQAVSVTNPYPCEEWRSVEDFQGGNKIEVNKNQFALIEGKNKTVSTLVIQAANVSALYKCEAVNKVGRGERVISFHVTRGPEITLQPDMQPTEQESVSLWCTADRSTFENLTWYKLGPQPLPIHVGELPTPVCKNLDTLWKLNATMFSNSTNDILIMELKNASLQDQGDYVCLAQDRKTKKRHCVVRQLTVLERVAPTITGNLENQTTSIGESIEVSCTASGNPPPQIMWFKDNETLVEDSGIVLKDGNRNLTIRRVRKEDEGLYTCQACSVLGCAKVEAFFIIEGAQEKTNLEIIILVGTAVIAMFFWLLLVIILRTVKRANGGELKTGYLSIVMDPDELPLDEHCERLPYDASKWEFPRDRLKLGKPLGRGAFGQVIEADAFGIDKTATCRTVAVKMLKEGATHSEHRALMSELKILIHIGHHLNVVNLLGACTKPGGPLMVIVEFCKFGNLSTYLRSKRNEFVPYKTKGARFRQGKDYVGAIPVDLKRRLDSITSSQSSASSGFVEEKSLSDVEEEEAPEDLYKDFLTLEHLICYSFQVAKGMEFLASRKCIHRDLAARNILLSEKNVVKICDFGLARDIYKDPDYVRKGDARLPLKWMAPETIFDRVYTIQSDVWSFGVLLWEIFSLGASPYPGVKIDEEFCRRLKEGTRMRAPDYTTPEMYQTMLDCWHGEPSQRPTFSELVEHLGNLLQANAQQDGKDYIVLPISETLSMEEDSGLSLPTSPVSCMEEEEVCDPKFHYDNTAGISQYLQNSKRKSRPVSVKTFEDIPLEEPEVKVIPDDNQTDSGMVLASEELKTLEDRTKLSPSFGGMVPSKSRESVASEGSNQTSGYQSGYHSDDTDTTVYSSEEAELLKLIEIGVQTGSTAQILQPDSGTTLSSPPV
pIC50: −log10 of the molar value.
Measurement type: pIC50

1: COc1cc2ncnc(Sc3cccc(NC(=S)Nc4ccc(Cl)cc4)c3)c2cc1OC [Compound 10t]
2: COc1cc2ncnc(Sc3cccc(NC(=S)Nc4cccc(C(F)(F)F)c4)c3)c2cc1OC [Compound 10p]
3: COc1cc2ncnc(Sc3cccc(NC(=S)Nc4ccc(Br)c(C(F)(F)F)c4)c3)c2cc1OC [Compound 10q]
4: COc1cc2ncnc(Oc3cccc(NC(=S)Nc4ccc(Cl)c(C(F)(F)F)c4)c3)c2cc1OC [Compound 10b]
stdin: Descending sort on pIC50 required. Form entry: labels listed in requested order.
stdout: 4, 3, 2, 1

P: COc1cc2ncnc(Oc3cccc(NC(=S)Nc4cccc(C(F)(F)F)c4)c3)c2cc1OC [Compound 10e]
Q: COc1cc2ncnc(Sc3cccc(NC(=S)Nc4cc(C(F)(F)F)cc(C(F)(F)F)c4)c3)c2cc1OC [Compound 10o]
stdin: Field: lower pIC50 | Options: P / Q Indicate which entry you chose by stating its label.
stdout: P

I: COc1cc2ncnc(Oc3cccc(NC(=S)Nc4ccc(F)c(C(F)(F)F)c4)c3)c2cc1OC [Compound 10a]
II: COc1cc2ncnc(Sc3cccc(NC(=S)Nc4ccc(Cl)c(C(F)(F)F)c4)c3)c2cc1OC [Compound 10m]
III: COc1cc2ncnc(Sc3cccc(NC(=S)Nc4ccc(F)c(F)c4)c3)c2cc1OC [Compound 10s]
stdin: List by increasing pIC50. Output spec: labels arranged per the requested ranking.
stdout: III, I, II

* * *

Method notes: Body weight in B16 melanoma xenograft model
Type: in vivo
Reported conditions: 90 mg/kg, B16 tumor-bearing C57BL/6J mice, before treatment
In this section we review reported Body Weight Initial values for a set of compounds.
Write the number in g without appending the unit.

>>> numeric_value("COc1cc2ncnc(Oc3cccc(NC(=S)Nc4ccc(Cl)c(C(F)(F)F)c4)c3)c2cc1OC [Compound 10b]")
18.9
>>> numeric_value("COc1cc2ncnc(Sc3cccc(NC(=S)Nc4ccc(Br)c(C(F)(F)F)c4)c3)c2cc1OC [Compound 10q]")
19.1
>>> numeric_value("CNC(=O)c1cc(Oc2ccc(NC(=O)Nc3ccc(Cl)c(C(F)(F)F)c3)cc2)ccn1 [sorafenib, reference compound]")
20.7

Now for another entry.
// field: Body Weight Initial; key: COc1cc2ncnc(Sc3cccc(NC(=S)Nc4ccc(Cl)c(C(F)(F)F)c4)c3)c2cc1OC [Compound 10m] ; value = 19.2

* * *

pIC50: −log10 of the molar value.
Observed pIC50 for EGFR (Homo sapiens, UniProt P00533), reported per entry below.
Measurement type: pIC50

>>> numeric_value("COc1cc2ncnc(Oc3cccc(NC(=S)Nc4ccc(Cl)cc4)c3)c2cc1OC [Compound 10i]")
5.38
>>> numeric_value("COc1cc2ncnc(Sc3cccc(NC(=S)Nc4ccc(Cl)cc4Cl)c3)c2cc1OC [Compound 10r]")
5.45

* * *

Below are compounds with their IC50 as measured on EGFR (Homo sapiens).
Sequence (P00533 25-1210): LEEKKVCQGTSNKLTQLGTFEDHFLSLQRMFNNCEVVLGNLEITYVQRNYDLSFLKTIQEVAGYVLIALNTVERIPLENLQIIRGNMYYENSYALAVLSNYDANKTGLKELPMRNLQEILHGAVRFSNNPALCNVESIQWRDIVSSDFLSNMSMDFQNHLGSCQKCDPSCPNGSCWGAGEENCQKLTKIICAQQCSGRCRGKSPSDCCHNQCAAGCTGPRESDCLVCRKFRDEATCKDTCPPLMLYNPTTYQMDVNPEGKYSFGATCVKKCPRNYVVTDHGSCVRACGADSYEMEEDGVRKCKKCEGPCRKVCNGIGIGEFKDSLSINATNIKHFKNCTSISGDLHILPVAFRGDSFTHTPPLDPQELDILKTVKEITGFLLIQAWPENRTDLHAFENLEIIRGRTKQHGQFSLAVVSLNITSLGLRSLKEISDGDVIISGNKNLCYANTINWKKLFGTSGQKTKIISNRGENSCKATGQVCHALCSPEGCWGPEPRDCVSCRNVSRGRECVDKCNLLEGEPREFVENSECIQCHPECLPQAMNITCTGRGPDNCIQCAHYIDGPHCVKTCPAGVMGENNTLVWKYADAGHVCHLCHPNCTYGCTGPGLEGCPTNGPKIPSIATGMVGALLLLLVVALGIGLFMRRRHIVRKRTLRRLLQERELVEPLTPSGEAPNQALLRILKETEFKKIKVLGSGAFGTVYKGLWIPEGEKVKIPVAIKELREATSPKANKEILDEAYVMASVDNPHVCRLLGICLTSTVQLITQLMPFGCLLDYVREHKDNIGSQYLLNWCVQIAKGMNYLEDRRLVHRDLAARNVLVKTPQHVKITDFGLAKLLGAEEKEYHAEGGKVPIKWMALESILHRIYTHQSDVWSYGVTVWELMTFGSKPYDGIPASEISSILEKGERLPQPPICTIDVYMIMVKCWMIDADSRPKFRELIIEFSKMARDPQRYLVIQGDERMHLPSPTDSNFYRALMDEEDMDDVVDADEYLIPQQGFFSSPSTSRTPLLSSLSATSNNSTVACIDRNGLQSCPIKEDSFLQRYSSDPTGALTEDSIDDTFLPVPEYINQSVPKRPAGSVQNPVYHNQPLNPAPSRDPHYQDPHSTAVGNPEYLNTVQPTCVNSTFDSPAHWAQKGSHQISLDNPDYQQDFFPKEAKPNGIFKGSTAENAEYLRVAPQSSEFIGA
Measurement type: IC50 (nM)

Below: 4 compounds and their reported IC50.
>>> numeric_value("COc1cc2ncnc(Sc3cccc(NC(=S)Nc4ccc(Cl)cc4)c3)c2cc1OC [Compound 10t]")
2860
>>> numeric_value("COc1cc2ncnc(Sc3cccc(NC(=S)Nc4ccc(F)c(F)c4)c3)c2cc1OC [Compound 10s]")
3170
>>> numeric_value("COc1cc2ncnc(Oc3cccc(NC(=S)Nc4cccc(C(F)(F)F)c4)c3)c2cc1OC [Compound 10e]")
140
>>> numeric_value("COc1cc2ncnc(Oc3cccc(NC(=S)Nc4ccc(F)cc4)c3)c2cc1OC [Compound 10j]")
5900

I: COc1cc2ncnc(Sc3cccc(NC(=S)Nc4ccc(Br)c(C(F)(F)F)c4)c3)c2cc1OC [Compound 10q]
II: COc1cc2ncnc(Oc3cccc(NC(=S)Nc4ccc(F)c(F)c4)c3)c2cc1OC [Compound 10h]
III: COc1cc2ncnc(Oc3cccc(NC(=S)Nc4ccc(Cl)c(C(F)(F)F)c4)c3)c2cc1OC [Compound 10b]
IV: COc1cc2ncnc(Oc3cccc(NC(=S)Nc4ccc(Br)c(C(F)(F)F)c4)c3)c2cc1OC [Compound 10c]
V: COc1cc2ncnc(Oc3cccc(NC(=S)Nc4ccc(Cl)cc4Cl)c3)c2cc1OC [Compound 10g]
stdin: Ranking field: IC50; order: falling. API: response body holds the labels in the requested order.
stdout: V, II, IV, III, I

* * *

Form field: pIC50 (one value per entry).
Assayed system: VEGFR-2 (Homo sapiens)
Method notes: VEGFR-2 inhibitory assay (caliper mobility shift assay)
pIC50: −log10 of the molar value.

>>> result("COc1cc2ncnc(Oc3cccc(NC(=S)Nc4ccc(F)c(F)c4)c3)c2cc1OC [Compound 10h]")
5.15
>>> result("COc1cc2ncnc(Oc3cccc(NC(=S)Nc4ccc(OC(F)(F)F)cc4)c3)c2cc1OC [Compound 10f]")
"< 5.00"
>>> result("COc1cc2ncnc(Oc3cccc(NC(=S)Nc4ccc(F)cc4)c3)c2cc1OC [Compound 10j]")
5.15
>>> result("COc1cc2ncnc(Sc3cccc(NC(=S)Nc4ccc(Cl)cc4Cl)c3)c2cc1OC [Compound 10r]")
"< 5.00"
>>> result("COc1cc2ncnc(Oc3cccc(NC(=S)Nc4ccc(C)cc4)c3)c2cc1OC [Compound 10k]")
"< 5.00"
>>> result("COc1cc2ncnc(Sc3cccc(NC(=S)Nc4ccc(OC(F)(F)F)cc4)c3)c2cc1OC [Compound 10n]")
"< 5.00"

Then this molecule:
# pIC50 (molecule: COc1cc2ncnc(Sc3cccc(NC(=S)Nc4ccc(C)cc4)c3)c2cc1OC [Compound 10v] ) is < 5.00
